Attribution: PubChem BioAssay AID1259375

molecular target: Microphthalmia-associated transcription factor (Homo sapiens) (UniProt O75030); assay: MITF inhibitors by FRET titration, dose response, biochemical, high throughput (AID 1259375); conditions: FRET biochemical assay, MITF inhibition;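 note: FRET between CFP-tagged and YFP-tagged MITF protein partners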
Sequence (O75030 whole entry, looked up): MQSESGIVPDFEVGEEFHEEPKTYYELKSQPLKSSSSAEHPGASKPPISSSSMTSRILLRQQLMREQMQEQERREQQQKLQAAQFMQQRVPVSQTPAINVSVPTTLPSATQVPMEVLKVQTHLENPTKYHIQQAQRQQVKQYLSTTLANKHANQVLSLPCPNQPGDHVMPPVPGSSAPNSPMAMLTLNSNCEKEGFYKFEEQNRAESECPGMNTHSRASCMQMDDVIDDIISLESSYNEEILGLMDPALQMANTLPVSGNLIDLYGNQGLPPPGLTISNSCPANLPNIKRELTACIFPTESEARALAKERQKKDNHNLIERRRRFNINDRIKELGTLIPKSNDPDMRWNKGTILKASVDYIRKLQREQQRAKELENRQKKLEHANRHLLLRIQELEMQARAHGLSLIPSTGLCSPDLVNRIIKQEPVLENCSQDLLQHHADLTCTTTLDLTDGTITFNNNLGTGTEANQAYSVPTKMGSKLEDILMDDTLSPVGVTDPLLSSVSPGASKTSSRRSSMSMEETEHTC
The source made the active and inactive calls. The rule behind the calls is not given here.
Bench note: report the call from active, inactive

compound: O=C(O)c1cc(S(=O)(=O)Nc2ccncc2)ccc1O
testedOn: Microphthalmia-associated transcription factor (Homo sapiens) (UniProt O75030)
categoryLabel: inactive
--
compound: C=C1c2cccc(O)c2C(O)=C2C(=O)[C@]3(O)C(O)=C(C(N)=O)C(=O)[C@@H](N(C)C)[C@@H]3[C@@H](O)[C@H]12
testedOn: Microphthalmia-associated transcription factor (Homo sapiens) (UniProt O75030)
categoryLabel: inactive

For N#CC1=C(N)n2c(s/c(=C\c3ccco3)c2=O)=C(C#N)C1c1ccco1 (stereo unspecified) , which call appears in the assay record? inactive

Now the same for `O=C1N[C@@H](Cc2ccc(O)cc2)C(=O)N2CCN(C(=O)NC3CCCCC3)C[C@H]12` inactive

Now the same for `O=C1N[C@@H](CSCc2ccccc2)C(=O)N2CCN(C(=O)NCc3ccccc3)C[C@H]12` inactive

Now the same for CCOC(=O)C1C2NC(=S)N(CC)C1(C)Oc1ccc(Br)cc12 (stereo unspecified) inactive

###

target: Microphthalmia-associated transcription factor (Homo sapiens) (UniProt O75030); assay: MITF inhibitors by FRET titration, dose response, biochemical, high throughput (AID 1259375); conditions: FRET biochemical assay, MITF inhibition;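 note: FRET between CFP-tagged and YFP-tagged MITF protein partners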
Activity calls are given as the source filed them. The rule behind the calls is not given here.
measurementKind: IC50

molecule: Cc1cc(C(=O)O)ccc1-c1ccc(/C=C2/NC(=O)NC2=O)o1
IC50: > 6.48 µM (inactive)

molecule: O=[N+]([O-])c1ccc(N/N=C/c2ccco2)c(S(=O)(=O)N2CCOCC2)c1
IC50: > 6.48 µM (inactive)

molecule: COc1ccc2c3c(cccc13)C(=O)N(C)C2=O
IC50: > 6.48 µM (inactive)

molecule: Cc1cccc(C(=O)Nc2c3c(nn2-c2ccc(F)cc2)CSC3)c1
IC50: > 5.53 µM (inactive)

molecule: Cc1cccc(CN2CCN(C3CCC(C)CC3)CC2)c1 (stereo not given)
IC50: > 5.54 µM (inactive)

What does the data say about its IC50? Entry: CCOC(=O)C1C2NC(=S)N(CC)C1(C)Oc1ccc(Cl)cc12 (stereo not given) > 8.6 µM (inactive)

Now the same for `Cc1ccc(-c2nnc3s/c(=C\c4ccco4)c(=O)n23)cc1` > 6.48 µM (inactive)

Now the same for `COc1cc(N2CCOCC2)ccc1Nc1cc(Nc2ccccc2-n2cccn2)c(C(F)(F)F)cn1` > 6.48 µM (inactive)

Now the same for `CC(C)C[C@@H]1NC(=O)[C@H]2CN(C(=O)NC3CCCCC3)CCN2C1=O` > 6.48 µM (inactive)

Now the same for `Cc1ncn(-c2ccc(N(C)c3ncc4cccc(-c5ccn[nH]5)c4n3)cc2)n1` > 6.48 µM (inactive)

###

target: Microphthalmia-associated transcription factor (Homo sapiens) (UniProt O75030); test: MITF inhibitors by FRET titration, dose response, biochemical, high throughput (AID 1259375); details: FRET biochemical assay, MITF inhibition;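 note: FRET between CFP-tagged and YFP-tagged MITF protein partners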
The source made the active and inactive calls. How the calls were made is not given here.
Bench note: report the call from active, inactive

Would you please look over these solved cases?
compound: O=C(O)C1CC=CCC1C(=O)Nc1nncs1 (stereo unspecified)
categoryLabel: inactive
//
compound: N#CC1=c2/c(=C/c3ccco3)c(N)c(C#N)n2C(=O)C(c2ccco2)S1 (stereo unspecified)
categoryLabel: active
//
compound: O=C(O)/C=C/c1ccc([N+](=O)[O-])o1
categoryLabel: inactive

For `O=C(NCCN1CCOCC1)c1cccc(CN(C(=O)c2nc3ccc(-c4cn[nH]c4)cc3s2)C2CC2)c1` , which call appears in the assay record? inactive

Now the same for `O=S(=O)(O)c1ccc(N/N=C2\CCc3ccccc32)cc1` inactive

Now the same for `O=C(NCCc1ccc(O)cc1)c1cccc(-c2cccs2)c1` inactive

Now the same for COc1ccc2c(c1)CC(C(=O)Nc1ccc(-c3cn[nH]c3)cc1C(=O)N(C)OC)CO2 (stereo unspecified) inactive

Now the same for `Cc1cc(NC(=O)C2CCN(C(=O)c3ccc(-n4cccc4)cc3)CC2)no1` inactive

Now the same for Cc1ccc(N2C(=O)c3ccccc3NC2c2cccc([N+](=O)[O-])c2)cc1 (stereo unspecified) inactive

Now the same for `COc1c(O)cc(O)cc1O` inactive

Now the same for CCC(C)NCCOc1cccc(Br)c1 (stereo unspecified) inactive

Now the same for `C=CC1=C(C)C2=Cc3c(C=C)c(C)c4[n]3[Sn+2][n]3c(c(C)c(CCC(=O)O)c3=CC3=NC(=C4)C(C)=C3CCC(=O)O)=CC1=N2` inactive

Now the same for `O=C(O)c1cccc(-n2cccc2/C=C2/NC(=O)N(c3ccc(Cl)cc3)C2=O)c1` inactive

Now the same for `O=P(O)(O)C(Sc1ccc(Cl)cc1)P(=O)(O)O` inactive

Now the same for `CCc1ccc(NC(=O)CCc2nc(C3=CCN(C)CC3)no2)cc1` inactive

Now the same for `N#C/C(=C\c1ccc(-c2ccccc2C(=O)O)o1)C(=O)NCc1ccco1` inactive

Now the same for `CN1CC(=O)N2CCN(C(=O)NC3CCCCC3)C[C@@H]2C1=O` inactive

Now the same for Cc1cncc2c(S(=O)(=O)N3CC[C@@H](NC(=O)C(O)c4ccc(F)cc4F)C3)cccc12 (stereo partly specified) inactive

Now the same for `N#Cc1cc([N+](=O)[O-])ccc1NC(=O)COC(=O)c1cc(-c2ccco2)nc2ccccc12` inactive

Now the same for `O=C1N[C@H](Cc2ccc(O)cc2)C(=O)N2CCN(C(=O)NCc3ccccc3)C[C@H]12` inactive

Now the same for `N#Cc1c(-c2ccco2)cc(-c2ccco2)nc1N` inactive
